biological target: Serine protease HTRA1 (Homo sapiens); test: HTRA1 protease inhibitors, retest, confirmation, biochemical, fluorescence polarization (AID 540248); details: recombinant HTRA1, FP-rhodamine activity-based probe, at 5.96 µM, active compounds read high;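 also: 0% = HTRA1 with DMSO and 100% = wells lacking HTRA1; inhibitors block probe binding so polarization drops and inhibition rises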
Some of the results follow.
experimental readout: inhibition (%)
Give the value, in units of %, as a plain number.

Answered examples (5):
O=C1c2ccccc2C(=O)c2c1cccc2N1CCN(Cc2ccccc2)CC1 = 60.1
O=C(N/N=C/c1sc(N2CCCCC2)nc1-c1cccs1)c1cccnc1 = 58.4
Cc1cc(/C=N/Nc2ccc([N+](=O)[O-])cn2)c(C)n1-c1cccc(C(=O)O)c1 = 30.7
Cc1cc(-c2csc(N)n2)c(C)n1Cc1ccccc1 = 30.6
COc1cccc(/C=N/Nc2ccc(S(=O)(=O)Nc3ccccc3C(=O)O)cc2[N+](=O)[O-])c1O = 25.5

Please report the recorded inhibition for "Oc1c(CN2CCCC2)cc(COCc2ccccc2)c2cccnc12" . 80

Lookup "O=C(CN1CCN(S(=O)(=O)c2cc(Cl)ccc2Cl)CC1)c1ccc(O)c(O)c1" 45.3

Now the same for "CC(=N\NC(=O)c1cc(Br)ccc1O)/C(=N/O)C(=O)Nc1ccccc1" 55.9

Next entry: "O=C(Nc1ccc(OC(F)(F)F)cc1)c1ccc2c(c1)no[n+]2[O-]" 69.4

Every entry's value here was drawn from PubChem BioAssay.
